Value source: paper PMC3503826

Entries with their measured pKi, system human A2AAR (Homo sapiens, UniProt P29274):
API: returns pKi as number; meaning -log10 of concentration in mol/L.

Reference set, count: 4
INSERT INTO measurements (molecule, study_system, recorded_measurement) VALUES
  ('COc1cccc(/C=C/C(=O)Nc2nc(-c3ccccn3)cs2)c1 [Compound 13]', 'human A2AAR (Homo sapiens, UniProt P29274)', 4.96),
  ('O=C(Nc1nc(-c2cccc(F)c2)cs1)c1ccc2[nH]nnc2c1 [Compound 23]', 'human A2AAR (Homo sapiens, UniProt P29274)', 5.42),
  ('CCOc1cccc2cc(C(=O)NCc3ccccn3)c(=N)oc12 [Compound 17]', 'human A2AAR (Homo sapiens, UniProt P29274)', 6.13),
  ('Cc1ccccc1Nc1nc(N)nc(COc2ccccc2C#N)n1 [Compound 9]', 'human A2AAR (Homo sapiens, UniProt P29274)', 5.63);

The molecule Cn1c(=O)c2[nH]c(NCC3CCCO3)nc2n(-c2ccccc2)c1=O (centres unmarked) [Compound 19] , tested on human A2AAR (Homo sapiens, UniProt P29274), showed pKi of 5.18

Let me check: Cc1cccc2c(=O)[nH]c(CSc3n[nH]c(C(C)C)n3)nc12 [Compound 14] , system human A2AAR (Homo sapiens, UniProt P29274), measured pKi is 5.18
